Cited source for all entries: the Immune Epitope Database (IEDB)

MEASURED_ON: HLA-A*02:01
PROCEDURE_SUMMARY: IEDB peptide-MHC binding, purified MHC/direct/fluorescence; filed as Kd, often an IC50 or EC50 that approximates it; bounds were set here for any values at or beyond the usual limits of such assays
CONDITION: source organism: Influenza A virus (A/Wisconsin/4755/1994(H1N1))
VALUE_KIND: Kd

For YRYTYRCHR , what is its reported Kd? ≥ 20 µM

---

MEASURED_ON: HLA-A*31:01
PROCEDURE_SUMMARY: IEDB peptide-MHC binding, purified MHC/competitive/radioactivity; filed as Kd, often an IC50 or EC50 that approximates it; bounds were set here for any values at or beyond the usual limits of such assays
CONDITION: source organism: Dengue virus 1 Brazil/97-11/1997
VALUE_KIND: pKd
The meaning of pKd here: minus log10 of the concentration in molar units.

For DTMTYKCPR , what is its reported pKd? 5.31

---

MEASURED_ON: HLA-A*02:11
PROCEDURE_SUMMARY: IEDB peptide-MHC binding, purified MHC/direct/fluorescence; filed as Kd, often an IC50 or EC50 that approximates it; bounds were set here for any values at or beyond the usual limits of such assays
CONDITION: source organism: Salmonella enterica subsp. enterica serovar Typhimurium str. LT2
VALUE_KIND: Kd

Recorded Kd for WTLETLPRV with HLA-A*02:11, please? ≤ 1 nM

---

MEASURED_ON: HLA-A*02:16
PROCEDURE_SUMMARY: IEDB peptide-MHC binding, purified MHC/competitive/fluorescence; filed as Kd, often an IC50 or EC50 that approximates it; bounds were set here for any values at or beyond the usual limits of such assays
CONDITION: source organism: Desulfatibacillum alkenivorans AK-01
VALUE_KIND: Kd (nM)
Form entry: value (nM) — number only.

For KLGKAGYVV , what is its reported Kd? 1.77

---

MEASURED_ON: HLA-A*26:02
PROCEDURE_SUMMARY: IEDB peptide-MHC binding, purified MHC/direct/fluorescence; filed as Kd, often an IC50 or EC50 that approximates it; bounds were set here for any values at or beyond the usual limits of such assays
CONDITION: source organism: Influenza A virus (A/Taiwan/2/2006(H1N1))
VALUE_KIND: Kd

For CFMYSDFHF , what is its reported Kd? ≥ 20 µM

---

MEASURED_ON: HLA-B*07:02
PROCEDURE_SUMMARY: IEDB peptide-MHC binding, purified MHC/direct/fluorescence; filed as Kd, often an IC50 or EC50 that approximates it; bounds were set here for any values at or beyond the usual limits of such assays
CONDITION: source organism: Salmonella enterica
VALUE_KIND: Kd

* NVHRSQFAQ | ≥ 20 µM

For WTLETLPRV , what is its reported Kd? ≥ 20 µM

---

MEASURED_ON: HLA-B*48:01
PROCEDURE_SUMMARY: IEDB peptide-MHC binding, purified MHC/direct/fluorescence; filed as Kd, often an IC50 or EC50 that approximates it; bounds were set here for any values at or beyond the usual limits of such assays
CONDITION: source organism: Cowpox virus
pKd: −log10 of the molar value.
VALUE_KIND: pKd

For YKDANISMY , what is its reported pKd? ≤ 4.70

---

MEASURED_ON: HLA-A*02:12
PROCEDURE_SUMMARY: IEDB peptide-MHC binding, purified MHC/competitive/fluorescence; filed as Kd, often an IC50 or EC50 that approximates it; bounds were set here for any values at or beyond the usual limits of such assays
CONDITION: source organism: Vibrio cholerae 2740-80
pKd: −log10 of the molar value.
VALUE_KIND: pKd

For LAVFPAMFW , what is its reported pKd? ≤ 4.70

---

MEASURED_ON: HLA-A*01:01
PROCEDURE_SUMMARY: IEDB peptide-MHC binding, purified MHC/direct/fluorescence; filed as Kd, often an IC50 or EC50 that approximates it; bounds were set here for any values at or beyond the usual limits of such assays
CONDITION: source organism: Ebola virus - Gabon (1994-1997)
pKd: −log10 of the molar value.
VALUE_KIND: pKd

For AKATGRYNL , what is its reported pKd? ≤ 4.70

---

Reported Kd values for a set of sequences
MEASURED_ON: HLA-B*07:02
PROCEDURE_SUMMARY: IEDB peptide-MHC binding, purified MHC/direct/fluorescence; filed as Kd, often an IC50 or EC50 that approximates it; bounds were set here for any values at or beyond the usual limits of such assays
CONDITION: source organism: Vibrio cholerae
Form entry: value (µM) — number only.

- GLRWHVRAF: 0.407

# ---- query sequence ----
For LLRQHWLSL , what is its reported Kd? 0.013

---

MEASURED_ON: HLA-B*27:03
PROCEDURE_SUMMARY: IEDB peptide-MHC binding, purified MHC/competitive/fluorescence; filed as Kd, often an IC50 or EC50 that approximates it; bounds were set here for any values at or beyond the usual limits of such assays
CONDITION: source organism: Homo sapiens
pKd: −log10 of the molar value.
VALUE_KIND: pKd

For KMFTYLMES , what is its reported pKd? ≤ 4.70

For SSDLRSWTF , what is its reported pKd? ≤ 4.70

For WLGHPFTPV , what is its reported pKd? ≤ 4.70

---

MEASURED_ON: HLA-B*15:17
PROCEDURE_SUMMARY: IEDB peptide-MHC binding, purified MHC/direct/fluorescence; filed as Kd, often an IC50 or EC50 that approximates it; bounds were set here for any values at or beyond the usual limits of such assays
CONDITION: source organism: Mycobacterium tuberculosis
VALUE_KIND: pKd
The meaning of pKd here: minus log10 of the concentration in molar units.

For SIYYTLVRM , what is its reported pKd? 6.59

---

MEASURED_ON: HLA-B*44:03
PROCEDURE_SUMMARY: IEDB peptide-MHC binding, purified MHC/competitive/radioactivity; filed as Kd, often an IC50 or EC50 that approximates it; bounds were set here for any values at or beyond the usual limits of such assays
CONDITION: source organism: Lymphocytic choriomeningitis virus (strain WE)
pKd: −log10 of the molar value.
VALUE_KIND: pKd

For LDVLCPSSL , what is its reported pKd? ≤ 4.11

---

MEASURED_ON: HLA-A*69:01
PROCEDURE_SUMMARY: IEDB peptide-MHC binding, purified MHC/competitive/fluorescence; filed as Kd, often an IC50 or EC50 that approximates it; bounds were set here for any values at or beyond the usual limits of such assays
CONDITION: source organism: Giardia lamblia ATCC 50803
VALUE_KIND: Kd

For LLDDGWAGE , what is its reported Kd? ≥ 20 µM

---

MEASURED_ON: HLA-B*46:01
PROCEDURE_SUMMARY: IEDB peptide-MHC binding, purified MHC/direct/fluorescence; filed as Kd, often an IC50 or EC50 that approximates it; bounds were set here for any values at or beyond the usual limits of such assays
CONDITION: source organism: Mycobacterium tuberculosis C
VALUE_KIND: Kd

For IIRTENRPL , what is its reported Kd? ≥ 20 µM

---

MEASURED_ON: HLA-A*33:01
PROCEDURE_SUMMARY: IEDB peptide-MHC binding, purified MHC/competitive/radioactivity; filed as Kd, often an IC50 or EC50 that approximates it; bounds were set here for any values at or beyond the usual limits of such assays
CONDITION: source organism: Hepatitis C virus (isolate 1)
pKd: −log10 of the molar value.
VALUE_KIND: pKd

Recorded pKd for HSKKKCDEL with HLA-A*33:01, please? ≤ 4.11

---

MEASURED_ON: HLA-A*02:01
PROCEDURE_SUMMARY: IEDB peptide-MHC binding, purified MHC/direct/fluorescence; filed as Kd, often an IC50 or EC50 that approximates it; bounds were set here for any values at or beyond the usual limits of such assays
CONDITION: source organism: Salmonella enterica subsp. enterica serovar Typhimurium
Reported pKd values for a set of sequences
The meaning of pKd here: minus log10 of the concentration in molar units.

• GLIEEMASA = 7.70

# ---- query sequence ----
Recorded pKd for LGYPFAWFL with HLA-A*02:01, please? 6.08

---

MEASURED_ON: HLA-A*03:01
PROCEDURE_SUMMARY: IEDB peptide-MHC binding, purified MHC/competitive/fluorescence; filed as Kd, often an IC50 or EC50 that approximates it; bounds were set here for any values at or beyond the usual limits of such assays
CONDITION: source organism: Vibrio vulnificus CMCP6
VALUE_KIND: Kd (µM)
Form entry: value (µM) — number only.

For LLLKERGLK , what is its reported Kd? 0.0296
